Ref: patent US11161855B2

Record type: IC50 measurement. Applies to: human JAK1 (a.a. 837-1142) (Homo sapiens, UniProt P23458)

Reference set, count: 3
| molecule | IC50 |
| --- | --- |
| C[C@@H](O)c1nc2cnc3ccsc3c2n1[C@@H]1CC[C@@H](CC#N)[C@H](O)C1 (single isomer, unassigned) [37 (second peak)] | ≤ 100 nM |
| C[C@@H](O)c1nc2cnc3ccsc3c2n1[C@@H]1CC[C@@H](CC#N)[C@@H](O)C1 (single isomer, unassigned) [36 (second peak)] | ≤ 100 nM |
| CCc1nc2cnc3ccsc3c2n1[C@H]1CC[C@H](CC#N)[C@@H](O)C1 (single isomer, unassigned) [40 (first peak)] | ≤ 100 nM |

We next turn to a different molecule, shown below.
Tell me the measured IC50 of CCc1nc2cnc3ccsc3c2n1[C@@H]1CC[C@@H](CC#N)[C@H](O)C1 (single isomer, unassigned) [40 (second peak)] , please. > 2000 nM
